// reported melting point for each item listed

>  <compound>
CC(C(=O)N(C)C)n1cc(Cl)c(-c2c(Cl)cccc2Cl)n1 (stereo not given)

>  <melting point>
126 to 128 °C

$$$$
>  <compound>
Cc1cnc2ncc(-c3cccc(-c4ccccc4C#N)c3)n2n1

>  <melting point>
211 to 216 °C

$$$$
>  <compound>
N#CC=Cc1ccc(C(=O)Cl)cc1

>  <melting point>
154 °C

$$$$
>  <compound>
CN1C2CCC1CC(NC(=O)c1cc(Cl)cc3oc(-c4ccccc4)nc13)C2 (stereo not given)

>  <melting point>
187 to 190 °C

$$$$
>  <compound>
CCC(CO)Nc1cc(C)nc(Oc2c(C)cc(Cl)cc2C)c1C(=O)OC (stereo not given)

>  <melting point>
122 to 124 °C

$$$$
>  <compound>
COc1cc(Nc2nc3cccc(-c4cncc5ccccc45)c3o2)cc(OC)c1OC

>  <melting point>
201 to 203 °C

$$$$
>  <compound>
CC(C)(C)c1cc(-c2nn(C3(C)COC(=O)O3)c3ncccc23)cc(C(C)(C)C)c1O (stereo not given)

>  <melting point>
190 to 191 °C

$$$$
>  <compound>
CCOC(=O)N1CCSC1COc1ccccc1OC (single isomer, unassigned; (-))

>  <melting point>
64 to 65 °C

$$$$
>  <compound>
COCOc1ccccc1-c1cc(-c2ccccc2C(=O)OC)c(C#N)c(NC(=O)c2cccs2)n1

>  <melting point>
190 to 191 °C

$$$$
>  <compound>
Nc1ncnc2c1c(CCCO)nn2Cc1oc2ccccc2c(=O)c1-c1ccccc1

>  <melting point>
182 to 184 °C

$$$$
>  <compound>
COc1cccc2c1[nH]c(=O)n2C(=O)Oc1ccccc1

>  <melting point>
204 to 205 °C

$$$$
>  <compound>
COc1ccc2c(c1)C(=O)C(=Cc1cccnc1)CO2

>  <melting point>
127 to 131 °C

$$$$
>  <compound>
CC(=Nc1ccccc1)NC(=S)NCc1cccnc1

>  <melting point>
143 to 144 °C

$$$$
>  <compound>
[N-]=[N+]=NC[C@H]1OC(O)[C@H](O)[C@@H](O)[C@@H]1O (stereo not given in full)

>  <melting point>
128 to 130 °C

$$$$
>  <compound>
O=C1OCc2cccc(CBr)c21

>  <melting point>
128 to 131 °C

$$$$
>  <compound>
CC(C)=NOCc1nc2c(N)nc(C)c(C)c2n1CCCCNC(=O)C(C)C

>  <melting point>
180 to 181 °C

$$$$
>  <compound>
CCOc1ccc2c3c([nH]c2c1)CC(NC(C)=O)CC3 (stereo not given)

>  <melting point>
184 to 186 °C

$$$$
>  <compound>
COc1cn(-c2ccc(-n3cc(F)c(F)c3)cc2OCC(F)(F)F)nc(-c2ccnn2-c2ccccc2)c1=O

>  <melting point>
220 to 222 °C

$$$$
>  <compound>
Cc1cc(Cl)cc2nc3c(=O)[nH][nH]c(=O)c3c(O)c12

>  <melting point>
117 to 119 °C

$$$$
>  <compound>
C#CCNc1cc(F)c([N+](=O)[O-])cc1[N+](=O)[O-]

>  <melting point>
113 to 115 °C

$$$$

====

The compounds listed here are annotated with their melting point.

>  <compound>
O=C1CCCN1C(c1ccccc1Cl)N1CCN(c2ncccn2)CC1 (configuration not stated)

>  <melting point>
166 to 177 °C

$$$$
>  <compound>
CNC(=O)NCCCCc1cccc(OC)c1

>  <melting point>
74 to 75.5 °C

$$$$
>  <compound>
Nc1cc(Cl)cc2cccnc12

>  <melting point>
70 to 73 °C

$$$$
>  <compound>
Cc1nc2cccc(OCC(C)(C)C(=O)NCC3CC3)c2c(N)c1C(=O)O

>  <melting point>
177 to 179 °C

$$$$
>  <compound>
NC(=O)c1ccc(F)c2c1OCC(N(CCCCc1c[nH]c3ccc(F)cc13)CC1CC1)C2 (configuration not stated)

>  <melting point>
116 °C

$$$$
>  <compound>
Cc1ccc(C2CC(n3cncn3)c3ccccc3N2)cc1 (configuration not stated)

>  <melting point>
146 to 148 °C

$$$$
>  <compound>
CCOC(=O)c1ccc(NC(=O)C=Cc2ccc(Cl)cc2)cc1

>  <melting point>
203 to 204 °C

$$$$
>  <compound>
CC(C)Cc1ccc(C(Nc2cccc(C(=O)n3cc(CCCC(=O)O)c4ccccc43)c2)c2ccc(CC(C)C)cc2)cc1

>  <melting point>
74.8 °C

$$$$
>  <compound>
COc1cc(C)nc(-c2cccc(-c3ccccc3C)n2)n1

>  <melting point>
103 °C

$$$$
>  <compound>
O=C(NCc1ccccc1N1CCNCC1)c1cnc2c(-c3cccc(Cl)c3)cnn2c1

>  <melting point>
185 to 188 °C

$$$$
>  <compound>
COC(=O)Cc1ccccc1Oc1cccc(O)c1

>  <melting point>
115 to 116 °C

$$$$
>  <compound>
N#Cc1cnn2c1NCC=C2c1cc(Cl)ccc1Cl

>  <melting point>
222 to 223 °C

$$$$
>  <compound>
COc1cc(C)nc(NC(=O)NS(=O)(=O)c2ccccc2C(=O)Nc2nncs2)n1

>  <melting point>
172 to 173 °C

$$$$
>  <compound>
O=C(NC1=NCCC1)Nc1ccc(Cl)cc1

>  <melting point>
147 to 150 °C

$$$$
>  <compound>
CC(C)(Cc1cc2cc(OCc3ccc4occc4n3)ccc2n1Cc1ccc(Cl)cc1)C(=O)O

>  <melting point>
157 °C

$$$$
>  <compound>
CNC(=O)C1CN=CNC1 (configuration not stated)

>  <melting point>
150 to 151 °C

$$$$
>  <compound>
N#CCOc1ccc2occ(CC#N)c2c1

>  <melting point>
86 to 87 °C

$$$$
>  <compound>
CCn1c(=S)c2[nH]c(C(C)C)nc2n(CC)c1=O

>  <melting point>
168 to 170 °C

$$$$
>  <compound>
Cc1ccc(S(=O)(=O)ON=C(CCN2C(=O)c3ccccc3C2=O)n2nc(C(C)(C)C)cc2N)cc1

>  <melting point>
80 to 82 °C

$$$$
>  <compound>
CCOC(=O)c1[nH]cc(Cc2cccc(F)c2C)c1-c1ccccc1

>  <melting point>
120 to 122 °C

$$$$
>  <compound>
CCCC[C@H](NC(=O)C(CSC(C)=O)C(F)(F)F)C(=O)O (some centres not stated)

>  <melting point>
123 to 125 °C

$$$$
>  <compound>
O=c1cc(C(F)(F)F)[nH]c(=O)n1-c1ccc(Cl)cc1F

>  <melting point>
189 °C

$$$$

====

Reported melting point values are given for each entry in this list.

>  <compound.structure>
O=S(=O)(F)c1cc(S(=O)(=O)F)cc(S(=O)(=O)F)c1

>  <melting point>
166 to 168 °C

$$$$
>  <compound.structure>
Cc1c(Br)c(=O)c(-c2ccc(Cl)cc2)c(C)n1C

>  <melting point>
264 to 266 °C

$$$$
>  <compound.structure>
COc1ccc(-c2cc(F)c(F)cc2-c2ccc(S(N)(=O)=O)cc2)cc1F

>  <melting point>
132 to 133 °C

$$$$
>  <compound.structure>
COc1ccc(-c2ccc(C)nc2-c2ccc(OCCN3CCOCC3)cc2)cc1

>  <melting point>
66 to 67 °C

$$$$
>  <compound.structure>
Nc1ncnc2c1ncn2Cc1oc2ccccc2c(=O)c1-c1ccc(F)cc1

>  <melting point>
212 to 216 °C

$$$$

====

// reported melting point for each item listed
property: melting point

>  <compound>
COc1cc(N)ccc1-c1nc(-c2cccnc2)c(C)[nH]1

>  <recorded.value>
95 to 100 °C

$$$$
>  <compound>
O=C(Nc1nc2c(s1)CC(N1CCN(c3ccccn3)CC1)CC2)c1ccccc1 (stereo not given)

>  <recorded.value>
230 to 232 °C

$$$$
>  <compound>
Cc1[nH]cnc1CCNC(=NCCCOc1cccc(CN2CCCCC2)c1)NC(=O)c1ccccc1

>  <recorded.value>
118 to 120 °C

$$$$
>  <compound>
COCCn1nnnc1-c1cc(-c2cc(C(F)(F)F)ccc2F)c(O)cc1O

>  <recorded.value>
90 to 94 °C

$$$$
>  <compound>
COc1cc2nccn2c(OC)n1

>  <recorded.value>
120 to 121 °C

$$$$

====

Below: a set of entries, each annotated with reported melting point.

>  <compound>
O=P1(c2ccccc2)c2ccccc2CN1Cc1ccccc1 (stereo not given)

>  <melting point>
99 to 101 °C

$$$$
>  <compound>
Cc1ccccc1CN(O)C(=O)C(C)(C)CCl

>  <melting point>
112 to 113 °C

$$$$
>  <compound>
CC(C)OC(=O)C(=C1SC=CS1)S(=O)(=O)C(C)C

>  <melting point>
124 to 125 °C

$$$$
>  <compound>
CC(O)c1cccc(-c2ccc3nc(-c4ccc(Cl)cc4)cn3c2)c1Cl (stereo not given)

>  <melting point>
170 to 172 °C

$$$$
>  <compound>
CNc1nc(-c2cccc(NC(=O)c3ccc(S(C)(=O)=O)cc3)c2)c2cc(OC)c(OC)cc2n1

>  <melting point>
277 to 279 °C

$$$$
>  <compound>
CCCCCCCCCCCCCCCCNC(=O)c1cc(O)cc(O)c1

>  <melting point>
154 to 156 °C

$$$$
>  <compound>
O=C(NC[C@@H](C(=O)NO)N1CCCCC1)c1ccc(OCc2ccnc(-c3ccccc3)c2)cc1

>  <melting point>
177 °C

$$$$
>  <compound>
Cc1ccc(Nc2c(F)cccc2Cl)c(CC(=O)O)c1

>  <melting point>
152 to 154 °C

$$$$
>  <compound>
CC(=O)N(C(C)=O)c1cscn1

>  <melting point>
55 °C

$$$$
>  <compound>
CCCCCC(C)C(C)c1cc(O)c2c(c1)OC(C)(C)C1=C2CN(CC(=O)NC(N)=O)CC1 (stereo not given)

>  <melting point>
131 to 133 °C

$$$$
